molecular target: T1, human SIRPA_V6 (human, UniProt P78324 31-504); test: cell-based ELISA on 293α cells expressing FLAG-tagged SIRPA_V6; Abs 490 normalized to FLAG tag [ii]
T1 construct: FLAG-tagged (pFLAG V5-DEST), on 293α cells; also called human SIRPA Variant 6
T1 sequence (P78324 31-504 S105P limits assumed): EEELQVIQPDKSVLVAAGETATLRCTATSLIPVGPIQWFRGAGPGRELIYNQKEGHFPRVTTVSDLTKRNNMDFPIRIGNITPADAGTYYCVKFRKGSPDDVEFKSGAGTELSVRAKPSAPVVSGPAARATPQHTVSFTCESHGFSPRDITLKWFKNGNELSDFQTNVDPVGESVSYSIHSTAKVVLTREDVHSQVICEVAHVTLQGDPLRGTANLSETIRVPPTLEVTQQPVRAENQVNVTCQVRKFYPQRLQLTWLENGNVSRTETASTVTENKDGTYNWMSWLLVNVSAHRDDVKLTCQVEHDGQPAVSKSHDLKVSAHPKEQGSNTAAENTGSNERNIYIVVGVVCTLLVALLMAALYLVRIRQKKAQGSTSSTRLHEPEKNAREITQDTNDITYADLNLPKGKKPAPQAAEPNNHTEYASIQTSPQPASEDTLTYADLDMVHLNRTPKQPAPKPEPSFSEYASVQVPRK
// values below are reported EC50 (read off the curve)

// query Please report EC50 (read off the curve) for the following binder: humanized anti-SIRPA antibody hD13_H1L3 (antibody, human IgG4 S228P, kappa, F234A L235A, V domains shown, hH1 heavy chain (IgG4proFALA) and hL3 kappa light chain; also called hD13_HIL3; HIL3 antibody) VH: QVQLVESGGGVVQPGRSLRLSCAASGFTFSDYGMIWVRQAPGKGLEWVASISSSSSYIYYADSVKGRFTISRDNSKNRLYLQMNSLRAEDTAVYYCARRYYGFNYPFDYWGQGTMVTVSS VL: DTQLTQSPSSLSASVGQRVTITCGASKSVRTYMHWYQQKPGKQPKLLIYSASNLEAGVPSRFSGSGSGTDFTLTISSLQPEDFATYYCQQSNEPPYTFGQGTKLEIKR
// result ~0.04 µg/mL

// query Please report EC50 (read off the curve) for the following binder: humanized anti-SIRPA antibody hD13_H2L2 (antibody, human IgG4 S228P, kappa, F234A L235A, V domains shown, hH2 heavy chain (IgG4proFALA) and hL2 kappa light chain; also called H2L2 antibody) VH: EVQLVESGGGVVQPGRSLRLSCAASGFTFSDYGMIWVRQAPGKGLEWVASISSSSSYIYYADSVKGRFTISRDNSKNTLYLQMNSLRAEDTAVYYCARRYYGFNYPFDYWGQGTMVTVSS VL: AIQLTQSPSSLSASVGQRVTITCGASKSVRTYMHWYQQKPGKAPKLLIYSASNLEAGVPSRFSGSGSGTDFTLTISSLQPEDFATYYCQQSNEPPYTFGQGTKLEIKR
// result ~0.04 µg/mL
